System: NCI-H23 lung
Run description: NCI tumour cell line growth inhibition, 48 h; in the data active means GI50 below about 0.43 µM; inactive means the rest
Hello, when you answer, please use one of the following outcomes: true (active), false (inactive)

// below: answered compounds
- Compound: "N#Cc1ccccc1C#C/C=C\\C#Cc1cccs1"
  Discrete label: "false"
- Compound: "Cc1cc(C)c(S(=O)(=O)N2CCN(c3cc4c(cc3F)c(=O)c(C(=O)O)cn4C3CC3)CC2)c(C)c1"
  Discrete label: "false"
- Compound: "COc1cc2c3c(n(CCCN(C)C)c(=O)c2cc1OC)-c1cc2c(cc1C3=O)OCO2"
  Discrete label: "true"
- Compound: "C=CCCCC(=O)CCC(=O)OCC1O[C@@H](O[C@@H]2C(O)[C@@H](OC(C)=O)C(C)O[C@H]2O[C@H](CC=C)CCCCC)C(O)[C@@H](OC(=O)/C(C)=C/C)[C@@H]1OC(=O)/C=C/c1ccccc1 (stereo partly drawn)"
  Discrete label: "false"
- Compound: "O=C(Nc1ccc(-n2ccc3c(NC(=O)c4ccccc4)nccc32)cc1)c1cccc(C(F)(F)F)c1"
  Discrete label: "false"

Tell me the recorded outcome of this test for COc1cc(C(=O)/C=C/c2cc(-c3cc(OC)c(OC)c(OC)c3)n[nH]2)cc(OC)c1OC .
false

In this assay, the call recorded for O=[N+]([O-])[O][Sn]([O][Sn]([O][N+](=O)[O-])([c]1ccccc1)[c]1ccccc1)([c]1ccccc1)[c]1ccccc1 was what?
false

GET /call?item= N#Cc1c(-c2ccc(Cl)cc2)cc(-c2cc(O)ccc2O)nc1N returns the recorded outcome of this test.
false

* * *

Tested on: CCRF-CEM leukemia
Run description: NCI tumour cell line growth inhibition, 48 h
# TGI per record follows

- Compound: "C=C1C2CC[C@@](C)(O)C2[C@H]2OC(=O)C(=C)[C@@H]2C[C@H]1O (stereo not given in full)"
  Measurement type: "TGI"
  Obs value: "17.9 µM"
- Compound: "Cn1cccc(C(=O)c2ccccc2)c1=O"
  Measurement type: "TGI"
  Obs value: "> 100 µM"
- Compound: "COc1cc(C2c3cc4c(cc3[C@@H](NCCCN3CCCC3=O)C3COC(=O)[C@H]23)OCO4)cc(OC)c1O (stereo not given in full)"
  Measurement type: "TGI"
  Obs value: "> 100 µM"
- Compound: "CN(C)c1ccc(Cc2cc(C(C)(C)C)cc(C(C)(C)C)c2O)cc1"
  Measurement type: "TGI"
  Obs value: "> 100 µM"
- Compound: "CC(C)=NN/C(=N\\S(=O)(=O)c1cc2ccccc2s1)Nc1ccc(Cl)cc1"
  Measurement type: "TGI"
  Obs value: "> 100 µM"
- Compound: "CCN1CC2(COC)C(O)CC(OC)C34C5CC6(O)C(OC)C=C(C5C6OC(=O)c5ccc(OC)c(OC)c5)C(C(OC)C23)C14 (stereo not given)"
  Measurement type: "TGI"
  Obs value: "> 7.5 µM"

Lab note: CCOC(=O)CC1c2ccc(O)cc2OC(=O)C1c1ccc(N)cc1 (stereo not given) gave TGI of > 100 µM

Quick note, TGI for Cn1ncc(NCCn2cnc3c2c(=O)n(C)c(=O)n3C)c(Cl)c1=O landed at > 100 µM

The recorded TGI for entry CCOC(=O)[C@@]12C(C)=CC(=O)O[C@]1(C)C[C@H]2C#N equals > 100 µM

Record Cc1cc(C)c(S(=O)(=O)N2CCN(c3cc4c(cc3F)c(=O)c(C(=O)O)cn4C3CC3)CC2)c(C)c1 , field TGI: > 100 µM

Query COc1cc2c(c(OC)c1)C(C)=NC(C)C2 (stereo not given) yields TGI of > 100 µM

// recorded TGI for CCN(CC)C(=O)c1c(Cl)cc(N(CC)CC)oc1=O : > 100 µM

Sample C=CCCC(CCC=C)(C(=O)O)C(=O)O ; TGI observed: > 100 µM

The value of TGI measured for the compound CC1(C)CC2(S(=O)(=O)c3ccccc3)ON1CC2S(=O)(=O)c1ccccc1 (stereo not given) turned out to be 89.9 µM

Reported TGI of C=CCCCC(=O)CCC(=O)OCC1O[C@@H](O[C@@H]2C(O)[C@@H](OC(C)=O)C(C)O[C@H]2O[C@H](CC=C)CCCCC)C(O)[C@@H](OC(=O)/C(C)=C/C)[C@@H]1OC(=O)/C=C/c1ccccc1 (stereo not given in full) : > 50 µM

For reference, reported TGI for COc1ccc(OC)c(Nc2nc3ccccc3c3c2-c2ccc(OC)cc2C3=O)c1 stands at > 100 µM

Per the records, this compound ( COC(=O)/C(C#N)=C1\CCC(Nc2cccc(C(F)(F)F)c2)N1C (stereo not given) ) has TGI equal to > 100 µM

Consider COc1cccc(C2SCC(=O)N2c2ccc(-c3ccc(-n4c(-c5ccccc5)nc5ccccc5c4=O)cc3)cc2)c1OC (stereo not given) . Its measured TGI is > 100 µM

For this compound ( CCOC(=O)C1(C(C)=O)OC(=O)c2cnccc21 (stereo not given) ), measured TGI is > 100 µM

Query Nc1ncc2ccc3c(ccn3C3CC(O)C(CO)O3)c2n1 (stereo not given) yields TGI of > 100 µM

* * *

Below: a set of entries, each annotated with reported TGI.
Tested on: BT-549 breast
Run description: NCI tumour cell line growth inhibition, 48 h

A selection of reference data follows.
- Compound: "O=[N+]([O-])[O][Sn]([O][Sn]([O][N+](=O)[O-])([c]1ccccc1)[c]1ccccc1)([c]1ccccc1)[c]1ccccc1"
  Obs value: "> 100 µM"
- Compound: "C=C(C)C(=O)OC1C[C@H](COC(C)=O)C2CC=C(C)C2C2OC(=O)C(=C)[C@H]12 (stereo not given in full)"
  Obs value: "14.4 µM"
- Compound: "O=C(CC1(O)C(=O)N(Cc2ccccc2)c2ccc(Br)cc21)c1ccc(C(=O)NCC2CCC3(CC2)OOC2(CCCCC2)OO3)cc1 (stereo not given)"
  Obs value: "20.1 µM"
- Compound: "O=[N+]([O-])c1ccc(-c2nc(/C=N/N3CCCCC3)cs2)o1"
  Obs value: "> 100 µM"
- Compound: "CO/C(N)=C(\\C#N)N=Cc1ccccc1"
  Obs value: "> 100 µM"

Record summary for Nc1c(C(=O)Nc2ccccc2)sc2nc3c(cc12)C(O)CCC3 (stereo not given) : reported TGI = > 100 µM

So for O=C1/C(=C/c2ccc(Cl)cc2)CCC/C1=C\c1ccc(O)c(CN2CCCCC2)c1 , the logged TGI turned out to be 31 µM

Item: O=c1[nH]cnc2c1cnn2Cc1cn(COCC(O)CO)nn1 (stereo not given) | TGI: > 100 µM

The reported TGI of the compound O=C(O)c1cc2cc(OCc3ccccc3)ccc2[nH]1 was > 100 µM

Documented TGI of Oc1cccc2cc(Cl)cnc12 : > 100 µM

* * *

Tested on: EKVX NSCLC
Run description: NCI tumour cell line growth inhibition, 48 h
Measurement type: TGI

Example entries begin here.
- Compound: "CC(C)(C)OC(=O)CCC1NC(=O)[C@@H]2Cc3c([nH]c4ccccc34)C(C3CCCCC3)N2C1=O (some centres not stated)"
  TGI: "> 100 µM"
- Compound: "CC(=O)NC1C(O)CC(OCCCSCCN)(C(=O)O)OC1C(O)C(O)CO (configuration not stated)"
  TGI: "> 100 µM"
- Compound: "CCOC(=O)/C=C\\[C@H]1OC(C)(C)O[C@H]1[C@H](O)[C@H]1COC(C)(C)O1"
  TGI: "50.1 µM"
- Compound: "Cc1ccc(N=Nc2c(O)c(S(=O)(=O)O)cc3cc(S(=O)(=O)O)ccc23)c(C)c1"
  TGI: "> 100 µM"
- Compound: "NC(=O)[C@@H](CCC(F)(F)F)N(Cc1ccc(-c2ncon2)cc1F)S(=O)(=O)c1ccc(Cl)cc1"
  TGI: "> 100 µM"
- Compound: "Cc1c(CN)c(C)c(CN)c(C)c1CN"
  TGI: "> 100 µM"

Read the next record carefully.
GET /value?item= Cc1ccnc2[nH]c(-c3cccc4ccccc34)cc(=O)c12 &field=TGI returns 34.6 µM

* * *

Tested on: SF-295 CNS
Run description: NCI tumour cell line growth inhibition, 48 h
Measurement type: TGI

Below, 3 compounds whose answers are already recorded.
- Compound: "Cc1c(-c2ccc(O)c(O)c2)oc(=O)c2c(O)cc(O)cc12"
  TGI: "28.9 µM"
- Compound: "CCOC1c2cc(OC)c(OC)cc2-c2ccc3ccccc3c2N1C (stereo unspecified)"
  TGI: "> 75.9 µM"
- Compound: "Cn1ccnc1Cn1cc(-c2cccc(-c3cn[nH]c3)c2)cn1"
  TGI: "> 100 µM"

Recorded TGI (compound CC(C)=CCc1ccc2[nH]c3c(c2c1)C(=O)C(=O)C(C)=C3C(O)C(C)O (stereo unspecified) ): 25 µM

Source: PubChem BioAssay (NCI)
